- Subject Of Test: human TRPM8 (Homo sapiens, UniProt Q7Z2W7)
- Construct: expressed in transfected cells; host or cells: Chinese hamster ovary (CHO) cells, T-REx tetracycline-inducible expression system (Invitrogen); co-transfected with pcDNA3.1 aequorin
- Sequence (Q7Z2W7 whole entry): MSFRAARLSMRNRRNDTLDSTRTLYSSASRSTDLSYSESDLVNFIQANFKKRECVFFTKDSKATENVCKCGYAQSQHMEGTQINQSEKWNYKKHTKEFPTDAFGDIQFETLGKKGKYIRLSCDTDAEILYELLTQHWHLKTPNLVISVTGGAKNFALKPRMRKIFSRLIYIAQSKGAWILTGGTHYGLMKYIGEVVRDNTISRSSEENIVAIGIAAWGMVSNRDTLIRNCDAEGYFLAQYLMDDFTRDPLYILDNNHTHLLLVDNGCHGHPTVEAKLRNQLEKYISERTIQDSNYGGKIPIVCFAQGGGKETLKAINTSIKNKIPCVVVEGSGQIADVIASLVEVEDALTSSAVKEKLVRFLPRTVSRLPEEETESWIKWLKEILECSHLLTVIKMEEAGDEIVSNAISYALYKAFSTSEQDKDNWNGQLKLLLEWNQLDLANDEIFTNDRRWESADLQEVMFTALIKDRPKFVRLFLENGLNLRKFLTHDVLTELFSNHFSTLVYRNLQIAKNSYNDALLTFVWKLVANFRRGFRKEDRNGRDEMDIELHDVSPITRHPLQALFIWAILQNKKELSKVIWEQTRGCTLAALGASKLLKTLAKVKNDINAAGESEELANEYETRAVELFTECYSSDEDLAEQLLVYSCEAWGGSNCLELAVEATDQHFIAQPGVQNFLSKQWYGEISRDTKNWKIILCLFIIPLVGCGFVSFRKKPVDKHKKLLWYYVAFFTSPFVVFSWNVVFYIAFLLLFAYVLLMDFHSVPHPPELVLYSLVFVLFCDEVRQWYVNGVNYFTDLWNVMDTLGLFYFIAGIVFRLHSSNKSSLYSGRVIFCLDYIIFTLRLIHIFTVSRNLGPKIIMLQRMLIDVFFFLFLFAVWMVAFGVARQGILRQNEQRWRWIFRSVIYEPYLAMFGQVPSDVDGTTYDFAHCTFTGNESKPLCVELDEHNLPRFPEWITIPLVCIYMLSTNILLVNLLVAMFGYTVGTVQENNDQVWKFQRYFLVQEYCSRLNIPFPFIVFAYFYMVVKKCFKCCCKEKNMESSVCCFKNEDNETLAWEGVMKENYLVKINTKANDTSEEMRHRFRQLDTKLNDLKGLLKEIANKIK
- Measurement Description: Luminescence readout assay for measuring intracellular calcium (aequorin, CHO cells expressing human TRPM8; icilin, L-menthol or cold activation)
- Type: cell-based
- Measurement Setup: CHO cells expressing human TRPM8, icilin activation (1 μM), aequorin luminescence; read-out: hTRPM8 IC50
Counter-ions that a name gives are not always drawn.
Attribute Measured: pIC50
pIC50 is a log-scale quantity: -log10 of the concentration expressed in molar.

Known pIC50 results, listed for orientation:
The measured pIC50 that O=C(O)c1ccc(C(=O)N[C@]2(c3ccc(C(F)(F)F)cc3)CCOc3cccnc32)nc1 showed for human TRPM8 (Homo sapiens, UniProt Q7Z2W7) is 7.48

For Cc1ccc([C@@]2(NC(=O)c3ccccc3)CCOc3cccnc32)cc1 (single isomer, unassigned) on human TRPM8 (Homo sapiens, UniProt Q7Z2W7), measured pIC50 was 6.79

Reported pIC50 (human TRPM8 (Homo sapiens, UniProt Q7Z2W7)) for entry Cc1[nH]c(C(=O)N[C@]2(c3ccc(OC(F)(F)F)c(F)c3)CCOc3cccnc32)cc1C(=O)O is 6.58

# pIC50 measured on human TRPM8 (Homo sapiens, UniProt Q7Z2W7) for item O=C(N[C@]1(c2ccc(C(F)(F)F)cc2)CCOc2cccnc21)c1ccn2ccnc2c1 = 7.37

Case O=C(N[C@]1(c2ccc(OC(F)(F)F)cc2)CCOc2cccnc21)c1cccc2cnccc12 [Example 249, formate] , human TRPM8 (Homo sapiens, UniProt Q7Z2W7), pIC50 recorded as 7.00

Others:
Lab note: compound O=C(N[C@]1(c2ccc3ccccc3c2)CCOc2cccnc21)c1ccc(=O)[nH]c1 tested on human TRPM8 (Homo sapiens, UniProt Q7Z2W7); recorded pIC50 was 6.91

human TRPM8 (Homo sapiens, UniProt Q7Z2W7) pIC50 of O=C(N[C@]1(c2ccc(OC(F)(F)F)c(F)c2)CCOc2nccnc21)c1ccc(=O)[nH]c1 is 5.65

Entry O=C(N[C@]1(c2ccc(OC(F)(F)F)c(F)c2)CCOc2cccnc21)c1ccc(Br)o1 , tested on human TRPM8 (Homo sapiens, UniProt Q7Z2W7), has a reported pIC50 of 7.96

* * *

- Subject Of Test: human TRPM8 (Homo sapiens, UniProt Q7Z2W7)
- Construct: expressed in transfected cells; host or cells: Chinese hamster ovary (CHO) cells, T-REx tetracycline-inducible expression system (Invitrogen); co-transfected with pcDNA3.1 aequorin
- Measurement Description: Luminescence readout assay for measuring intracellular calcium (aequorin, CHO cells expressing human TRPM8; icilin, L-menthol or cold activation)
- Type: cell-based
- Measurement Setup: CHO cells expressing human TRPM8, icilin activation (1 μM), aequorin luminescence; read-out: hTRPM8 IC50
Measured pIC50 accompanies every entry in the list below.
# reply with the number alone; pIC50 is -log10 of concentration in mol/L

Some entries whose results are on file:
Record summary for Cn1ncc2cc(C(=O)N[C@]3(c4ccc(OC(F)(F)F)c(F)c4)CCOc4cccnc43)ccc21 : reported pIC50 = 7.82

In plain terms, Cc1cc(C(=O)N[C@]2(c3ccc(OC(F)(F)F)cc3)CCOc3cccnc32)ccc1C(=O)O has a documented pIC50 of 7.82

Record summary for O=C(Nc1ccc(-c2noc(=O)[nH]2)nc1)N[C@]1(c2ccc(OC(F)(F)F)c(F)c2)CCOc2cccnc21 : reported pIC50 = 5.51

Could you now consider this next molecule?
The recorded pIC50 for Cc1ccc(-c2ccc([C@@]3(NC(=O)c4ccc(F)cc4)CCOc4cccnc43)cc2)cc1N is 6.11

* * *

- Subject Of Test: human TRPM8 (Homo sapiens)
- Construct: expressed in transfected cells; host or cells: Chinese hamster ovary (CHO) cells, T-REx tetracycline-inducible expression system (Invitrogen); co-transfected with pcDNA3.1 aequorin
- Measurement Description: Luminescence readout assay for measuring intracellular calcium (aequorin, CHO cells expressing human TRPM8; icilin, L-menthol or cold activation)
- Format: cell-based
- Measurement Setup: CHO cells expressing human TRPM8, icilin activation (1 μM), aequorin luminescence; read-out: hTRPM8 IC50
Where a name gives a salt, the structure may show the parent alone.
Attribute Measured: pIC50
To interpret pIC50, take it as minus log10 of a concentration measured in moles per litre.

Take a look at these entries with their results.
GET /value?item= Cn1cc(C(=O)N[C@]2(c3ccc(OC(F)(F)F)cc3)CCOc3cccnc32)c2ccccc21 [Example 257, formate] &field=pIC50 returns 7.23

Documented pIC50 of O=C(NC1(c2ccc(OC(F)(F)F)c(F)c2)CCOc2cccnc21)c1ccc(F)cc1 (stereo not shown) : 7.47

Recorded result, O=C(Nc1ccncc1)N[C@]1(c2ccc(OC(F)(F)F)c(F)c2)CCOc2cccnc21 , pIC50: 8.22

GET /value?item= O=C(N[C@]1(c2ccc(C(F)(F)F)cc2)CCOc2cccnc21)c1ccc(=O)[nH]c1 &field=pIC50 returns 6.90

# molecule Cn1ncc2ccc(C(=O)N[C@]3(c4ccc(C(F)(F)F)cc4)CCOc4cccnc43)cc21 ; its pIC50 = 7.70

Record COC(=O)c1ccc(C(=O)N[C@]2(c3ccc(Cl)c(Cl)c3)CCOc3cccnc32)nc1 . Reported pIC50: 7.68

// recorded pIC50 for Cc1cc(C(=O)N[C@]2(c3ccc(C(F)(F)F)c(F)c3)CCOc3cccnc32)ccc1C(=O)O : 7.77

Reported pIC50 of O=C(N[C@]1(c2ccc(OC(F)(F)F)cc2)CCOc2cccnc21)c1ccsn1 [Example 232, formate] : 7.59

Kindly note the recorded pIC50 for CC(=O)Nc1ccc(C(=O)N[C@]2(c3ccc(C(F)(F)F)cc3)CCOc3cccnc32)nc1 , which is 6.95

Per the record, O=C(N[C@]1(c2ccc(C(F)(F)F)cc2)CCOc2cccnc21)c1c[nH]c(=O)cn1 has pIC50 of 7.42

Further cases:
get_value(item= O=C(N[C@]1(c2ccc(OC(F)(F)F)c(F)c2)CCOc2cccnc21)c1csc(C(=O)O)n1 , readout=pIC50) returns 6.64

Reported pIC50 ( CCOC(=O)c1cc(C(=O)N[C@]2(c3ccc(OC(F)(F)F)c(F)c3)CCOc3cccnc32)cc(C(=O)OCC)c1 ) = 7.03

Consider O=C(O)c1ccc(C(=O)N[C@]2(c3ccc(C(F)(F)F)c(F)c3)CCOc3cccnc32)nc1 . Its measured pIC50 is 7.85

The molecule listed as Cn1cc2ccc(C(=O)N[C@]3(c4ccc(OC(F)(F)F)cc4)CCOc4cccnc43)cc2n1 [Example 265, formate] has a reported pIC50 of 7.85

Note to self: pIC50 recorded for O=C(N[C@]1(c2ccc(Cl)c(Cl)c2)CCOc2cccnc21)c1ccc(=O)[nH]c1 was 7.36

Recorded pIC50 (molecule O=C(N[C@]1(c2ccc(-c3cccc(F)c3O)cc2)CCOc2cccnc21)c1ccc(F)cc1 ): 6.49

* * *

- Subject Of Test: human TRPM8 (Homo sapiens, UniProt Q7Z2W7)
- Construct: expressed in transfected cells; host or cells: Chinese hamster ovary (CHO) cells, T-REx tetracycline-inducible expression system (Invitrogen); co-transfected with pcDNA3.1 aequorin
- Measurement Description: Luminescence readout assay for measuring intracellular calcium (aequorin, CHO cells expressing human TRPM8; icilin, L-menthol or cold activation)
- Assay type: cell-based
- Measurement Setup: CHO cells expressing human TRPM8, icilin activation (1 μM), aequorin luminescence; read-out: hTRPM8 IC50
Counter-ions that a name gives are not always drawn.
So basically, if IC50 comes in under 0.1 µM it's fulfilled, and if it's 0.1 µM or more it's not fulfilled.

Below, 4 compounds whose answers are already recorded.
query: I wonder whether COC(=O)c1ccc(C(=O)N[C@]2(c3ccc(OC(F)(F)F)c(F)c3)CCOc3cccnc32)cc1NC(C)=O has IC50 below 0.1 µM. Can you tell?
result: fulfilled

query: Please determine if O=C(Nc1cccc(C(=O)O)c1)N[C@]1(c2ccc(OC(F)(F)F)c(F)c2)CCOc2cccnc21 is below 0.1 µM in terms of IC50.
result: not fulfilled

query: Confirm or reject: IC50 of O=C(N[C@]1(c2ccc(OC(F)(F)F)cc2)CCOc2cccnc21)C1=Cc2ccccc2OC1 [Example 259, formate] lies strictly below 0.1 µM
result: fulfilled

query: hey, is IC50 for COc1ccc(-c2ccc([C@@]3(NC(=O)c4ccc(F)cc4)CCOc4cccnc43)cc2)c(CO)c1 lower than 0.1 µM or not?
result: not fulfilled

Further cases:
query: Below 0.1 µM on IC50? Entry CC(=O)Nc1ccc(-c2ccc([C@@]3(NC(=O)c4ccc(F)cc4)CCOc4cccnc43)cc2)cc1
result: not fulfilled

query: Threshold test, IC50 < 0.1 µM: O=C(N[C@]1(c2ccc(OC(F)(F)F)c(F)c2)CCOc2cccnc21)c1ccc(C(=O)O)c(Cl)c1 [Example 197, trifluoroacetate]
result: fulfilled

query: Check if IC50 falls below 0.1 µM for N#Cc1ccc(-c2ccc([C@@]3(NC(=O)c4ccc(F)cc4)CCOc4cccnc43)cc2)cc1 .
result: not fulfilled

meta.source: patent US20150031668A1
